biological target: Human Polymorphonuclear Leukocyte Elastase (Homo sapiens, UniProt P08246); test: Inhibition of human polymorphonuclear leukocyte elastase via hydrolysis of Boc-AAPAN or Boc-AAPVN; format: biochemical; conditions: pH 7.5, Table I; second order rate constant for inactivation of the enzyme; read-out: Kobs /[I]
Sequence (P08246 30-267): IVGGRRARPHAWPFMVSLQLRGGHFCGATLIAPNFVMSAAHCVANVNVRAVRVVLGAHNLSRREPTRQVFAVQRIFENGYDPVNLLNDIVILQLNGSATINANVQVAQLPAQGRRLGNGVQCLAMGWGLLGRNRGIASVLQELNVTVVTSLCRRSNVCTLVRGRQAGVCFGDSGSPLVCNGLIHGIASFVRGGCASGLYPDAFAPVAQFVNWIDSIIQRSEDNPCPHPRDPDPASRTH
Counter-ions that a name gives are not always drawn.
measurement_type: kinact/KI (M⁻¹ s⁻¹)

Study these solved cases before continuing.
compound: CCC[C@@H](NC(=O)N1C(=O)C(CC)(CC)[C@@H]1Oc1ccc(CN(C)CCN(C)C(=O)OC)cc1)c1ccc(C)cc1 [R4=Me; R5=CH2 CH2 N(Me)COOMe; R6=H]
kinact/KI / M⁻¹ s⁻¹: 1.1e+06

compound: CCC[C@@H](NC(=O)N1C(=O)C(CC)(CC)[C@@H]1Oc1ccc(C(COC)N(C)CC)cc1)c1ccc(C)cc1 (mixture of isomers) [R4=Me; R5=Et; R6=CH2 OMe]
kinact/KI / M⁻¹ s⁻¹: 1e+06

compound: CCC[C@@H](NC(=O)N1C(=O)C(CC)(CC)[C@@H]1Oc1ccc(CN(C)CCC(=O)O)cc1)c1ccc(C)cc1 [R4=Me; R5=CH2 CH2 CO2 H--TFA; R6=H]
kinact/KI / M⁻¹ s⁻¹: 440000

I = CCC[C@@H](NC(=O)N1C(=O)C(CC)(CC)[C@@H]1Oc1ccc(CN(C)CCO)cc1)c1ccc(C)cc1 [R4=Me; R5=CH2 CH2 OH; R6=H]
II = CCC[C@@H](NC(=O)N1C(=O)C(CC)(CC)[C@@H]1Oc1ccc(CN(C)CCN(C)Cc2ccccc2)cc1)c1ccc(C)cc1 [R4=Me; R5=CH2 CH2 N(Me)Bn; R6=H]
Out of I and II , name the one with the higher kinact/KI. The response must carry the label of the picked entry.
II
